System: drug-naive rats
Assay: Locomotor activity in drug-naive rats (in vivo behaviour)
Parameters: species or system rat
Conditions: 33 μmol/kg, recorded for 60 minutes immediately after drug administration
Overview of reported Locomotor activity (counts/60 min ± SEM) across a group of compounds:
API: value field is a number in counts/60 min; no unit string.

Example compounds with recorded Locomotor activity (counts/60 min ± SEM):
> print(dat)
                                   compound                         measured.property  readout.value
1  CCCNCC1COc2ccc(F)c(F)c2O1 (centres unmarked)  Locomotor activity (counts/60 min ± SEM)           4408
2  CCCNCC1COc2ccc(OS(=O)(=O)C(F)(F)F)cc2O1 (centres unmarked)  Locomotor activity (counts/60 min ± SEM)           8064
3  CCCNCC1COc2c(F)cc(F)cc2O1 (centres unmarked)  Locomotor activity (counts/60 min ± SEM)           5457
4          Fc1ccc2c(c1)O[C@@H](CN1CCCC1)CO2  Locomotor activity (counts/60 min ± SEM)           1944

Lab note: measured Locomotor activity (counts/60 min ± SEM) of CCCNC[C@H]1COc2ccc(Br)cc2O1 was 1326
